target: cytochrome bc1 complex of pig heart (Sus scrofa); construct: The test target is cytochrome bc1 complex of pig heart; from tissue; host or cells: pig heart; test: Enzyme activity test, Complex III; type: biochemical; conditions: cytochrome bc1 complex of pig heart; read-out: IC50 (nM) Complex III
Sequence (P24964 whole entry, one chain of several): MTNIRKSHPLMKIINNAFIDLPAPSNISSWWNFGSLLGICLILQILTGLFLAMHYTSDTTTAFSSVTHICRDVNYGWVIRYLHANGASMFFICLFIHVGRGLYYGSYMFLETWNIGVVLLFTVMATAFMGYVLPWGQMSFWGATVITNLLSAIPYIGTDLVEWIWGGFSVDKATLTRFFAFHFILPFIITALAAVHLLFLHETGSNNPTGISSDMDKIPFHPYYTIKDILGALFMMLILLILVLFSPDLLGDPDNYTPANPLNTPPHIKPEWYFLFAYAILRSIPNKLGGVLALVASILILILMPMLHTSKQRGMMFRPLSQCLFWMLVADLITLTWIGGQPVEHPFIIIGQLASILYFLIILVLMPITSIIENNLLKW
observationType: IC50 (nM)

• CO/C=C(/C(=O)OC)c1ccccc1Oc1cc(Oc2ccccc2C#N)ncn1 [Azoxystrobin, azoxystrobin, reference compound] = 200

###

assay: Acute toxicity test on zebra fish; settings: in vivo, 72 hrs
observationType: LC50 at 72 h (µg/mL)

- CO/C=C(/C(=O)OC)c1ccccc1CSc1nc2cc(OC)ccc2s1: 0.047

###

molecular target: UniProtKB P24964; assay: Enzyme activity test, SCO; format: biochemical
observationType: IC50 (nM)

* CO/C=C(/C(=O)OC)c1ccccc1Oc1cc(Oc2ccccc2C#N)ncn1 [Azoxystrobin, azoxystrobin, reference compound] | 13

###

Biological target: UniProtKB P24964
Experiment: Enzyme activity test, NOX
Type: biochemical
Description: Take NADH oxidase (NOX), succinate-cytochrome C oxidase (SCO), and Complex III as target enzymes, the inhibitory activity of the compound of Formula (I) was tested. ^a NOX is generally used to detect an inhibitor of Complex I and Complex III; SCO is generally used to detect an inhibitor of Complex II and Complex III. Thus, an inhibitor of Complex III should have inhibitory activity on the two enzymes.
observationType: IC50 (nM)

- CO/C=C(/C(=O)OC)c1ccccc1Oc1cc(Oc2ccccc2C#N)ncn1 [Azoxystrobin, azoxystrobin, reference compound]: 27

###

experiment: Acute toxicity test on zebra fish; conditions: in vivo, 48 hrs
observationType: LC50 at 48 h (µg/mL)

• CO/C=C(/C(=O)OC)c1ccccc1CSc1nc2cc(OC)ccc2s1 = 0.06

###

experiment: Acute toxicity test on zebra fish; conditions: in vivo, 96 hrs
observationType: LC50 at 96 h (µg/mL)

- CO/C=C(/C(=O)OC)c1ccccc1CSc1nc2cc(OC)ccc2s1: 0.043

Numbers sourced from patent US9422254B2.
